# tested-target: human P2X3 receptor (Homo sapiens)
# Construct: expressed in transfected cells; host or cells: CHO-K1
# protocol-text: Calcium luminescence (photoprotein) assay in CHO-K1 cells co-expressing human P2X3 receptor, α,β-Met-ATP stimulation, FLEXSTATION readout
# Type: cell-based
# assay-context: Table 6; human P2X3 receptor antagonist activity, CHO-K1 cells, α,β-Met-ATP; read-out: h-P2X3 IC50
Assign pIC50 to each entry below.
Schema: pIC50 number; meaning minus log10 of the concentration expressed in molar units.

Dear colleague, I am looking for the recorded pIC50 of the following molecule: CC(C)CC1CN2C(=O)N(Cc3ccc(Cl)cc3)c3cc(N4CCOCC4)cnc3C2=N1 (centres unmarked) 6.46

Recorded pIC50 for COc1cc(CN2C(=O)N3CC(C(C)C)N=C3c3ncc(N4CCC(N)CC4)cc32)cc(OC)c1 (centres unmarked) , please? 6.72

For CCC1CN=C2c3ncc(N4CCOCC4)cc3N(Cc3ccc(OC)cc3)C(=O)N21 (centres unmarked) , what is its reported pIC50? 5.68

What value of pIC50 has been reported for the following molecule? COc1cc(CN2C(=O)N3CC(c4ccccc4)N=C3c3ncc(N4CCOCC4)cc32)cc(OC)c1 (centres unmarked) 6.90

Given the molecule CCC1CN2C(=O)N(Cc3ccc(Cl)cc3)c3cc(N4CCOCC4)cnc3C2=N1 (centres unmarked) , what is its reported pIC50? 6.55

// query pIC50 value for entry COc1cc(CN2C(=O)N3CC(C(C)C)N=C3c3ncc(C(=O)NC4CCOCC4)cc32)cc(OC)c1 (centres unmarked) 5.04

Which value of pIC50 has been reported for COc1ccc(CN2C(=O)N3CC(C(C)C)N=C3c3ncc(N4CCOCC4)cc32)cc1 (centres unmarked) in the records? 6.52

Return reported pIC50; argument: COC1CCN(c2cnc3c(c2)N(Cc2ccc(Cl)cc2)C(=O)N2CC(C(C)C)N=C32)CC1 (centres unmarked) 5.65

* * *

# tested-target: human P2X3 receptor (Homo sapiens, UniProt P56373)
# Construct: expressed in transfected cells; host or cells: CHO-K1
# protocol-text: Calcium luminescence (photoprotein) assay in CHO-K1 cells co-expressing human P2X3 receptor, α,β-Met-ATP stimulation, FLEXSTATION readout
# Assay type: cell-based
# assay-context: Table 9; human P2X3 receptor antagonist activity, CHO-K1 cells, α,β-Met-ATP; read-out: h-P2X3 IC50
result-type: IC50
Number first, unit second: that is the form wanted.

Item under review: CCC1CCN=C2c3ncc(N4CCOCC4)cc3N(Cc3ccc(Cl)cc3)C(=O)N21 (stereo not shown) . Reported IC50? 2.17 µM

Please give the measured IC50 for this compound: COc1ccc(Cn2c(=O)n3nc(C(C)(C)C)nc3c3ncc(N4CCOCC4)cc32)cc1 0.495 µM

Quick one: IC50 for CCN(CC)c1cnc2c(c1)N(Cc1ccc(OC)cc1)C(=O)N1C2=NC(=O)C1C(C)(C)C (stereo not shown) ? 0.702 µM

IC50 lookup needed for COc1ncc2c(n1)c1nnc(C(C)(C)C)n1c(=O)n2Cc1ccc(Cl)cc1 , thanks. 1.39 µM

* * *

Provide the recorded IC50 for the entries that follow.
# tested-target: human P2X3 receptor (Homo sapiens, UniProt P56373)
# Construct: expressed in transfected cells; host or cells: CHO-K1
# Sequence (P56373 1-397): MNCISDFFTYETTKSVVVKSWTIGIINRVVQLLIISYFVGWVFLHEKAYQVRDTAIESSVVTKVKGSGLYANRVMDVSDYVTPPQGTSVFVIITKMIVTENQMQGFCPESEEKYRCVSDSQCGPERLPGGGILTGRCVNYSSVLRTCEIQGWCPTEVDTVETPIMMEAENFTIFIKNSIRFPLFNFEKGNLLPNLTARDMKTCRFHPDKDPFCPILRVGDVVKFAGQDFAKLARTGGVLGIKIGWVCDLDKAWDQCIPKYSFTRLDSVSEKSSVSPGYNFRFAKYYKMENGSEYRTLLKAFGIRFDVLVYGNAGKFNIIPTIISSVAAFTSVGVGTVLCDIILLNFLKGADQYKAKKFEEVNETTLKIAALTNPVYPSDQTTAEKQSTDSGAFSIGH
# protocol-text: Calcium luminescence (photoprotein) assay in CHO-K1 cells co-expressing human P2X3 receptor, α,β-Met-ATP stimulation, FLEXSTATION readout
# Format: cell-based
# assay-context: Table 9; human P2X3 receptor antagonist activity, CHO-K1 cells, α,β-Met-ATP; read-out: h-P2X3 IC50
# Protocol: The assay for the human purinergic P2X3 receptor has been adapted to the internal screening instrumentation using the FLEXSTATION as reader and a photoprotein as luminescent readout. […] After 4 minutes a second injection of 50 μL/well of 5× α,β-Met-ATP in Tyrode's buffer (α,β-Met-ATP: from Tocris (cat. no 3209), was dissolved at 100 mM in water and stored in aliquots at −20° C.) was performed and the signal of the emitted luminescence was recorded by FLEXSTATION III (Molecular Devices). […]
The figure you give is taken to be in nM; do not add the unit.

IC50 lookup needed for CC(C)(C)c1nnc2c3ncc(N4CCOCC4)cc3n(Cc3ccc(Cl)cn3)c(=O)n12 [Example 173] , thanks. 2.59

What IC50 value was documented for this compound, COc1cc(CN2C(=O)N3CC(C)(C)CN=C3c3ncc(NCCO)cc32)cc(OC)c1 [Example 144] ? 2480

Reported IC50, compound COc1ccc(Cn2c(=O)n3c(C(C)(C)C)nnc3c3ncc(N)cc32)cc1 [Example 176] : ____ 2570

Query (compound): COc1ccc(Cn2c(=O)n3c(C4(C)CC4)nnc3c3ncc(N4CCOCC4)cc32)cc1 [Example 174] ; field requested: IC50 78.5

Query: IC50; subject: CCC1CCN=C2c3ncc(N4CCOCC4)cc3N(Cc3cc(OC)cc(OC)c3)C(=O)N21 (stereo not shown) [Example 151] 938

// query IC50 value for entry CC(C)c1nnc2c3ncc(N4CCC(O)CC4)cc3n(Cc3ccc(Cl)cc3)c(=O)n12 [Example 171] 700

Which IC50 reading was recorded for the compound CCC1CCN2C(=O)N(Cc3ccc(Cl)cc3)c3cc(N4CCOCC4)cnc3C2=N1 (stereo not shown) [Example 154] ? 1050

I have this compound here, COc1cc(CN2C(=O)N3CC(C)(C)N=C3c3ncc(N4CCOCC4)cc32)cc(OC)c1 [Example 161] , and I need its recorded IC50. 4290

Entry under review: COc1ccc(Cn2c(=O)n3nc(CC(C)C)nc3c3ncc(N4CCOCC4)cc32)cc1 [Example 156] . Reported IC50? 608

Returns the measured IC50 for the input compound. Input: CC(C)C1C(=O)N=C2c3ncc(N4CCOCC4)cc3N(Cc3ccc(Cl)cc3)C(=O)N21 (stereo not shown) [Example 163] 278

What value of IC50 has been reported for the following compound? COc1cc(CN2C(=O)N3CC(C)CN=C3c3ncc(N4CCOCC4)cc32)cc(OC)c1 (stereo not shown) [Example 145] 1780

Report IC50 for O=c1n(Cc2ccc(Cl)cc2)c2cc(N3CCOCC3)cnc2c2nnc(COC3CCOCC3)n12 [Example 188] please. 528

Look up IC50: CC1(C)CN=C2c3ncc(NCCO)cc3N(Cc3ccc(Cl)cc3)C(=O)N2C1 [Example 143] 2260

Fill in the blank: the reported IC50 of O=c1n(Cc2ccc(Cl)cc2)c2cc(N3CCOCC3)cnc2c2nnc(CC3CCOCC3)n12 [Example 186] is ____. 289

Quick check: IC50 of COc1cc(CN2C(=O)N3CC(C)(C)CN=C3c3ncc(N4CCOCC4)cc32)cc(OC)c1 [Example 147] ? 2440

Which value of IC50 has been reported for COc1ccc(CN2C(=O)N3C(=NC(=O)C3C(C)C)c3ncc(N4CCOCC4)cc32)cc1 (stereo not shown) [Example 164] in the records? 188

* * *

# tested-target: human P2X3 receptor (Homo sapiens, UniProt P56373)
# Construct: expressed in transfected cells; host or cells: CHO-K1
# protocol-text: Calcium luminescence (photoprotein) assay in CHO-K1 cells co-expressing human P2X3 receptor, α,β-Met-ATP stimulation, FLEXSTATION readout
# Assay type: cell-based
# assay-context: Table 8; human P2X3 receptor antagonist activity, CHO-K1 cells, α,β-Met-ATP; read-out: h-P2X3 IC50
result-type: IC50 (nM)
// units = nM; emit number, no label

Consider the compound COc1ccc(Cc2nn3c(C(C)C)nnc3c3ncc(N4CCOCC4)cc23)cc1 and give its measured IC50. 1810

Item COCC1CN(c2cnc3c(c2)c(Cc2cc(OC)cc(OC)c2)nn2c(CC(C)C)nnc32)C1 has what recorded IC50? 1150

Look up IC50: CC(C)(C)OC(=O)NC1CCN(c2cnc3c(c2)c(Cc2ccc(Cl)cc2)nn2c(C(C)(C)C)nnc32)CC1 3340

Would you kindly share the measured IC50 for Cc1ccc(Cc2nn3c(CC4CCOCC4)nnc3c3ncc(N4CCOCC4)cc23)cc1 ? 197

Item under review: COCC1CN(c2cnc3c(c2)c(Cc2ccc(OC)cc2)nn2c(CC(C)C)nnc32)C1 . Reported IC50? 2820

What value of measured IC50 is listed for COc1cc(Cc2nn3c(CC(C)C)nnc3c3ncc(N4CCOCC4)cc23)cc(OC)c1 ? 469

Look up IC50 for this compound: Cc1ccc(Cc2nn3c(CC4CCCCC4)nnc3c3ncc(N4CCOCC4)cc23)cc1 234
